System: SK-MEL-5
Experiment: NCI tumour cell line growth inhibition, 48 h
Calls of active or inactive are those of the source. Rule as the data show it: active = GI50 up to about 1.1 µM and inactive = higher.
Property measured: GI50

| Molecule | Recorded measurement |
| --- | --- |
| CC(=O)Nc1ccc(-c2nnc(SCC(=O)Nc3ccc(Cl)cc3)o2)cc1 | 5.69 µM (inactive) |
| CCOC(=S)SSSC(=S)OCC | 36.1 µM (inactive) |
| Cc1ccc(S(=O)(=O)NC(=O)Nc2nnc(S(N)(=O)=O)s2)cc1 | > 100 µM (inactive) |
| COc1cc2c3c(c1OC)/C(=N/OS(=O)(=O)c1ccc(C)cc1)CC3N(S(=O)(=O)c1ccc(C)cc1)CC2 (stereo unspecified) | > 100 µM (inactive) |
| CC(=O)c1ccc2c(c1)C(=O)c1sc(C(C)=O)cc1C2=O | 0.389 µM (active) |
| CC1=N/C(=C\c2ccc(C)cc2)C(=O)O1 | > 100 µM (inactive) |
| CCOC(=O)c1cc2c([N+](=O)[O-])c(N)ccc2s1 | > 100 µM (inactive) |
| O=C(N/N=C\c1ccc([N+](=O)[O-])cc1)Nc1ccc2ccccc2c1 | 77.3 µM (inactive) |

# batch: return GI50 for each of the 3 molecules below
1. CC1=C(N2CC2)C(=O)c2nc3n(c2C1=O)CCC3OC(=O)CCl (stereo unspecified)
2. COc1ccccc1NC(=O)CC(=O)N1N=C(C)C(/N=N/c2ccc(S(N)(=O)=O)cc2)C1=O (stereo unspecified)
3. CC(C)c1[nH]nc(C(N)=O)c1/N=N/N(C)C

["0.0428 µM (active)", "> 100 µM (inactive)", "88.1 µM (inactive)"]

---

System: IGROV-1
Assay: NCI tumour cell line growth inhibition, 48 h
Activity calls are given as the source filed them. No stated cut-off is given here; in the data, active = GI50 up to about 1.1 µM and inactive = higher.
Lab note: assign the record to one of 1.0 = active, 0.0 = inactive

Called result for `C=C(CN(C)C)C(=O)c1ccc(OC)cc1` 0.0

Called result for COc1cc2c3c(c1OC)/C(=N/OS(=O)(=O)c1ccc(C)cc1)CC3N(S(=O)(=O)c1ccc(C)cc1)CC2 (configuration not stated) 0.0

Called result for `O=C(NC(=O)c1cn(CCNCCO)c(=O)[nH]c1=O)OCc1ccccc1` 0.0

Called result for `CCOC(=O)/C(C#N)=C/c1ccc2c(-c3c(OCC)ccc4cc(/C=C(\C#N)C(=O)OCC)ccc34)c(OCC)ccc2c1` 0.0

Called result for `CC(=O)CSCc1ccccn1` 0.0

Called result for CCOC(=O)NC(Nc1ncccn1)(C(=O)OCC)C(F)(F)F (configuration not stated) 0.0

Called result for COc1ccc2c(c1)N=C1CSC(c3cccc(Br)c3)N1C2 (configuration not stated) 0.0

Called result for `Cc1nn(C(=O)CC(=O)Nc2ccc(Cl)cc2)c(C)c1/N=N/c1ccccc1C(=O)O` 0.0

Called result for `COc1ccc(OC)c(/N=C/c2cc(OC)c(OC)c(OC)c2)c1` 0.0

Called result for `CCCOc1ccc2sc(NC(=O)c3cc([N+](=O)[O-])cc([N+](=O)[O-])c3)nc2c1` 0.0

Called result for `CC1=CC(=O)/C(=C/NC(N)=S)C(=O)O1` 0.0

---

System: NCI-H23
Test: NCI tumour cell line growth inhibition, 48 h
Active and inactive are the calls of the source. Cut-off read from the data, not from the text of the source: active = GI50 up to about 1.1 µM and inactive = higher.
Lab note: assign the record to one of true = active, false = inactive

Below are worked cases with known answers.
| Compound | Class |
| --- | --- |
| CC1(C(=O)NCCN(CCNC(=O)C2(C)CC3(C)CC(C)(C2)C(=O)NC3=O)CCNC(=O)C2(C)CC3(C)CC(C)(C2)C(=O)NC3=O)CC2(C)CC(C)(C1)C(=O)NC2=O (configuration not stated) | false |
| Cc1cccc2oc3c(c(=O)c12)CC(O)C(C)(C)O3 (configuration not stated) | false |
| CO[C@H]1Nc2c(ccc(C)c2O)C(=O)N2C=C(/C=C/C(N)=O)C[C@@H]12 | true |
| Nc1ncc(CN2CCOCC2)c(-c2ccccc2O)n1 | false |
| CCOc1ccc(/C(C=O)=C(\Cl)c2ccc(OC)c(OC)c2)cc1 | false |
| O=C1C/C(=N/c2ccc(Cl)cc2)C(c2ccccc2)N1c1ccccc1 (configuration not stated) | false |

Moving on to another compound below.
Called result for `CC(C)(c1ccccc1)c1ccc(Oc2ccc3c(c2)-c2nc-3nc3[nH]c(nc4nc(nc5[nH]c(n2)c2ccc(Oc6ccc(C(C)(C)c7ccccc7)cc6)cc52)-c2cc(Oc5ccc(C(C)(C)c6ccccc6)cc5)ccc2-4)c2ccc(Oc4ccc(C(C)(C)c5ccccc5)cc4)cc32)cc1` false
